Tested on: HT-29
protocol_description: Growth inhibition of human HT-29 cells after 72 hrs by MTT assay
Assay type: functional
conditions_used: HT-29, 72 h
value_kind: GI50 (nM)
Give your result in nM as a bare value.

# test_smiles, result_units, GI50
measured = [
    ("CCn1ccc2c3c(=O)cc(-c4ccc5ccccc5c4)[nH]c3ccc21", "nM", 376),
]

Q: Query (compound): CCn1ccc2ccc3[nH]c(-c4ccccc4)cc(=O)c3c21 ; field requested: GI50
Ans: 16

Q: Query (compound): CCn1ccc2cc3c(=O)cc(-c4ccccc4)[nH]c3cc21 ; field requested: GI50
Ans: 16
